# system_tested: Btk (Homo sapiens)
# Construct: purified from insect cells as a full-length construct containing a N-terminal 6X-His tag; His6 (N); made in house; host or cells: insect cells (Method C)
# method_summary: Btk in vitro inhibitory activity (one of Method A TR-FRET, Method B electrophoretic mobility shift, Method C radiometric filter binding)
# Type: biochemical
# test_conditions: wild-type Btk; read-out: Btk-WT IC50
metric_name: log10 IC50 (log10 of the value in nM)
Transform log10 | Measure IC50 | Unit nM

Incoming: Please list log10 IC50 recorded for the compound CC(C)Cc1cc(C(=O)NCc2ccc(-c3ccnc4[nH]nc(N[C@@H]5CCCN(C(=O)N(C)C)[C@@H]5C)c34)cc2F)no1 [Example 306]
Outgoing: 2.73

Incoming: Complete the entry with log10 IC50 for CC(C)(C)c1noc(C(=O)NCc2ccc(-c3ccnc4[nH]nc(N5CCC(N)CC5)c34)cc2F)n1 [Example 178]
Outgoing: -0.22

Incoming: Answer with reported log10 IC50 of C[C@@H](NC(=O)c1nc(C(C)(C)C)no1)c1ccc(-c2ccnc3[nH]nc(C4CCN(C(=O)N(C)C)CC4)c23)cc1 [Example 244]
Outgoing: 0.21

Incoming: Give log10 IC50 for CC(C)(C)c1ccc(C(=O)NCc2ccc(-c3ccnc4[nH]nc(N[C@H]5CCN(C=O)C5)c34)cc2F)cc1 [Example 61]
Outgoing: 1.53

Incoming: Give reported log10 IC50 value for CC(C)(C)c1noc(C(=O)NCc2ccc(-c3ccnc4[nH]nc(N5CCC(N)C5)c34)cc2F)n1 (stereo not shown) [Example 330]
Outgoing: -0.20

Incoming: Name the recorded log10 IC50 of the compound listed here: C=CC(=O)N1CC(Nc2n[nH]c3nccc(-c4ccc(CNC(=O)c5noc(C(C)(C)C)n5)c(F)c4)c23)C1 [Example 107]
Outgoing: 2.72

Incoming: State its log10 IC50: C=CC(=O)N1CC[C@@H](Nc2n[nH]c3nccc(-c4ccc(CNC(=O)c5ccc6oc(C)nc6c5)c(F)c4)c23)C1 [Example 380]
Outgoing: 2.53

* * *

# system_tested: Btk (Homo sapiens, UniProt Q06187)
# Construct: purified from insect cells as a full-length construct containing a N-terminal 6X-His tag; His6 (N); made in house; host or cells: insect cells (Method C)
# Sequence (Q06187 whole entry): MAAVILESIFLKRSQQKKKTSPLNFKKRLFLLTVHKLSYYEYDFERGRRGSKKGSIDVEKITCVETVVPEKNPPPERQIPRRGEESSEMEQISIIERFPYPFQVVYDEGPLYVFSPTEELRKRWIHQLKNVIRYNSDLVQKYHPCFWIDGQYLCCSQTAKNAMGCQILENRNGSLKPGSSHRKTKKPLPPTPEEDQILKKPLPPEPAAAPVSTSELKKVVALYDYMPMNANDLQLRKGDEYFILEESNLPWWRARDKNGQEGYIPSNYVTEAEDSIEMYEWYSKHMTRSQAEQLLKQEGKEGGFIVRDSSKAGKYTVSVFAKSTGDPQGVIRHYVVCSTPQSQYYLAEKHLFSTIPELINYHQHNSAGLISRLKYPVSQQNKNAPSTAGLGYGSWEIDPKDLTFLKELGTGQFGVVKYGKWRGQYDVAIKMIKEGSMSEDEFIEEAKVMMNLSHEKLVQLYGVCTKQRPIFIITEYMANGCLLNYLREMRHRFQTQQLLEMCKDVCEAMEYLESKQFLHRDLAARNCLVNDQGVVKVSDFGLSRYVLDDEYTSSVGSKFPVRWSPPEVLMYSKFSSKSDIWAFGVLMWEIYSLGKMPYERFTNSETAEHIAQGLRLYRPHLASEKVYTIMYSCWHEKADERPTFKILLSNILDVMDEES
# method_summary: Btk in vitro inhibitory activity (one of Method A TR-FRET, Method B electrophoretic mobility shift, Method C radiometric filter binding)
# Format: biochemical
# test_conditions: method is one of A, B or C, not stated which; read-out: IC50 values against Btk
What IC50 was measured for each of the following?

Incoming: Lab note: Btk (Homo sapiens, UniProt Q06187) assay, enter IC50 for C=CC(=O)N1CC[C@@H](Nc2n[nH]c3nccc(-c4ccc(CNC(=O)c5nc(C(C)(C)C)no5)c(F)c4)c23)C1 [Example 83] here
Outgoing: < 10 nM

Incoming: Provide Btk (Homo sapiens, UniProt Q06187) IC50 reading for C[C@H]1CC[C@@H](Nc2n[nH]c3nccc(-c4ccc(CNC(=O)c5noc(C(C)(C)C)n5)c(F)c4)c23)CN1C(=O)CC#N [Example 140] .
Outgoing: < 10 nM

Incoming: Find the measured IC50 of C=CC(=O)N1CC[C@@H](Nc2n[nH]c3nccc(-c4ccc(CNC(=O)c5cc6c(n5C)CC(C)(C)C6)c(F)c4)c23)C1 [Example 158] with Btk (Homo sapiens, UniProt Q06187) as test system.
Outgoing: < 10 nM

meta.source: patent US20180194762A1
